Reference source for all entries: BigSolDB 2.1

settings: in isopropanol, 303.2 K
result_type: solubility (mole fraction)
Reply: number alone, nothing else.

The compound identified as COc1cc2nccc(Oc3ccc(NC(=O)C4(C(=O)Nc5ccc(F)cc5)CC4)cc3)c2cc1OC.O=C(O)C[C@H](O)C(=O)O registered its solubility (mole fraction) at 0.00068
